assay: xn = mol fraction of the nth substance listed; details: 323.15 K; 100 kPa; Liquid; Vibrating tube method; x1 = 0.03
quantity_measured: mass density (kg/m3)

// mass density lookup, key: [Br-].[K+] [potassium bromide] + O
1123.9

// mass density lookup, key: [I-].[Na+] [sodium iodide] + O
1169.1

// mass density lookup, key: [Cl-].[Li+] [lithium chloride] + O
1028.3

// mass density lookup, key: [I-].[Li+] [lithium iodide] + O
1146.1

// mass density lookup, key: [Br-].[Cs+] [cesium bromide] + O
1251.5

// mass density lookup, key: [Br-].[Rb+] [rubidium bromide] + O
1188.9

// mass density lookup, key: [Cl-].[K+] [potassium chloride] + O
1062.4

// mass density lookup, key: [F-].[Rb+] [rubidium fluoride (RbF)] + O
1137

// mass density lookup, key: [Br-].[Li+] [lithium bromide] + O
1089.4

// mass density lookup, key: [Cl-].[Na+] [sodium chloride] + O
1052.4

// mass density lookup, key: [I-].[Rb+] [rubidium iodide (RbI)] + O
1242.3

// mass density lookup, key: [Cs+].[I-] [cesium iodide] + O
1302.5
